# test_name: Pharmacokinetics study of KPT-335 in cats (i.v. injection, p.o. capsules and tablets; UPLC-MS/MS, non-compartmental analysis)
# Assay type: in vivo
# experimental_parameters: both sexes, cat, plasma, po, 2 mg/kg, cats, capsule p.o. 2 mg/kg BW, 32 h, mean

# item_smiles, concentration at 32 h
records = [
    ("O=C(/C=C\\n1cnc(-c2cc(C(F)(F)F)cc(C(F)(F)F)c2)n1)NNc1ccccn1", "4.07 ng/mL"),
]

* * *

# test_name: Pharmacokinetics study of KPT-335 in cats (i.v. injection, p.o. capsules and tablets; UPLC-MS/MS, non-compartmental analysis)
# Format: in vivo
# experimental_parameters: both sexes, cat, plasma, po, 1 mg/kg, cats, tablet p.o. 1 mg/kg BW after fasting, 4 h, individual cats 1-6; read-out: Plasma concentration

# item_smiles, concentration at 4 h (ng/mL)
data = [
    ("O=C(/C=C\\n1cnc(-c2cc(C(F)(F)F)cc(C(F)(F)F)c2)n1)NNc1ccccn1", 209),
]
